# system.name: AF9 YEATS (His-AF9) (Homo sapiens, UniProt P42568)
Where a SMILES comes first, the peptide text is derived from it. The star is where a group is joined. Oxazole(5-CO) = O=C(c1cnco1)*; Crotonyl(E) = C/C=C/C(=O)*; 2Furoyl = O=C(c1ccco1)*; Butyryl = CCCC(=O)*

compound: CCCC(=O)NCCCC[C@H](NC(=O)[C@H](Cc1ccc(O)cc1)NC(=O)[C@H](CS)NC(=O)[C@H](Cc1ccc(O)cc1)NC(=O)[C@@H](NC(=O)[C@H](CC(=O)O)NC(=O)[C@@H](N)Cc1ccc(O)cc1)C(C)C)C(N)=O [ENL-S1] (H-YDVYCYK(Butyryl)-NH2)
Kd [nM]: 205
//
compound: CC(C)[C@H](NC(=O)[C@H](CC(=O)O)NC(=O)[C@@H](N)Cc1ccc(O)cc1)C(=O)N[C@@H](Cc1ccc(O)cc1)C(=O)N[C@@H](CS)C(=O)N[C@@H](Cc1ccc(O)cc1)C(=O)N[C@@H](CCCCNC(=O)c1ccco1)C(N)=O [ENL-S1f] (H-YDVYCYK(2Furoyl)-NH2)
Kd [nM]: 144
//
compound: CC(C)[C@H](NC(=O)[C@H](CC(=O)O)NC(=O)[C@@H](N)Cc1ccc(O)cc1)C(=O)N[C@@H](Cc1ccc(O)cc1)C(=O)N[C@@H](CS)C(=O)N[C@@H](Cc1ccc(O)cc1)C(=O)N[C@@H](CCCCNC(=O)c1cnco1)C(N)=O [ENL-S1o] (H-YDVYCYK(Oxazole(5-CO))-NH2)
Kd [nM]: 55.1
//
compound: C/C=C/C(=O)NCCCC[C@H](NC(=O)[C@H](Cc1ccc(O)cc1)NC(=O)[C@H](CS)NC(=O)[C@H](Cc1ccc(O)cc1)NC(=O)[C@@H](NC(=O)[C@H](CC(=O)O)NC(=O)[C@@H](N)Cc1ccc(O)cc1)C(C)C)C(N)=O [ENL-S1c] (H-YDVYCYK(Crotonyl(E))-NH2)
Kd [nM]: 147
